- measurement-description: chemical genetic growth profiling, strain panel (AID 1159580);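 further: tested at 20 µM; growth read once vehicle control cultures reached saturation at 30 °C; 1 = growth at the plate median or of vehicle wells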
- condition-parameters: S. cerevisiae deletion strains, growth OD, locus YNL298W, strain CLA4, stronger effect = lower value
Among all 5,500 compounds or so, about 2,000 (36%) were called active. Another 18% or so got no clear call; they are omitted. Some of the results follow.
Listed here: items and their measured normalized growth.
Write the value as a bare number.

Use these answered entries as a reference point.
molecule	normalized growth
COc1cc(/C=C/C=O)cc(OC)c1OC	0.995
O=c1[nH]cnc2c1ncn2C1O[C@H](CO)[C@@H](O)[C@H]1O (stereo not given in full)	1.03
CCC1(CC)C(=O)C=CNC1=O	1

Query: Name the recorded normalized growth for O=C(O)c1cc(=O)c2cccc(O)c2[nH]1 .
Result: 0.987

Query: Now try CC1(C)C(=O)[C@@H]2O[C@@H]2[C@@]2(C)C1CC(=O)[C@]1(C)C2CC[C@@]2(C)[C@H](c3ccoc3)OC(=O)[C@H]3O[C@]321 (stereo not given in full) .
Result: 0.967

====

Listed here: items and their measured normalized growth.
- measurement-description: chemical genetic growth profiling, strain panel (AID 1159580)
- condition-parameters: S. cerevisiae deletion strains, growth OD, locus YNL322C, strain KRE1, stronger effect = lower value
In all, about 5,500 compounds went through this assay and about 2,000 (36%) were called active. Inconclusive results (about 18%) are left out. The list shows a part of the results.
Write the value as a bare number.

Use these answered entries as a reference point.
smiles-str	normalized growth
N#Cc1nccnc1Sc1ccc(Cl)cc1	0.925
Cc1nn(-c2ccccc2)nc1C(=O)NNC(=S)Nc1ccc(Cl)cc1	1.02

Query: Name the recorded normalized growth for NC(=O)N1c2ccccc2C=Cc2ccccc21 .
Result: 1.01

Query: Now try CN(C)C(=O)N=NC(=O)N(C)C .
Result: 1.02

Query: Now try CC(C)[C@@H]1NC(=O)[C@H](CCCCN)NC(=O)[C@@H](Cc2c[nH]c3ccccc23)NC(=O)[C@H](Cc2ccc(O)cc2)NC(=O)[C@H](C)N(C)C(=O)[C@H](Cc2ccccc2)NC1=O .
Result: 0.984

Query: Now try Cc1ccc(N=Nc2c(C)[nH]n(C)c2=O)cc1 .
Result: 0.991

====

- measurement-description: chemical genetic growth profiling, strain panel (AID 1159580)
- condition-parameters: S. cerevisiae deletion strains, growth OD, locus YER167W, strain BCK2, stronger effect = lower value
In all, about 5,500 compounds went through this assay and about 2,000 (36%) were called active. Another 18% or so got no clear call; they are omitted. The list shows a part of the results.
Rule: normalized growth below 1 gives yes (1). Equal to or above 1 gives no (0).

The examples below pair each entry with its known result.
compound	label-value
CC(=O)OCC(=O)[C@@]1(O)CCC2C3CC[C@@H]4C[C@H](OC(C)=O)CC[C@]4(C)C3C(=O)C[C@@]21C (some centres not stated)	yes (1)
COc1ccc2c(c1OC)OC[C@@H](c1ccc(OC)c(OC)c1OC)C2	no (0)
C#C[C@]1(O)CCC2C3CCC4=Cc5oncc5C[C@]4(C)C3CC[C@@]21C (some centres not stated)	yes (1)
COc1cccc(O)c1O	no (0)

Alright, here's another compound for you.
Query: Lab note: normalized growth threshold 1. Does this compound come in strictly under it? COC(=O)[C@]1(C)CC[C@]2(C)CC[C@]3(C)C4=CC=C5C(=CC(=O)C(O)=C5C)[C@]4(C)CC[C@@]3(C)[C@@H]2C1
Result: yes (1)

====

- measurement-description: chemical genetic growth profiling, strain panel (AID 1159580)
- condition-parameters: S. cerevisiae deletion strains, growth OD, locus YNL307C, strain MCK1
Hit rate of the full screen: of about 5,500 compounds, about 2,000 (36%) were called active. Another 18% or so got no clear call; they are omitted. Rule as the data show it: active = normalized growth mostly below about 0.91 (no sharp cut-off); inconclusive = no clear call, values can overlap the other calls; inactive = mostly above about 0.92. The list shows a part of the results.
Form entry, call: pick from y for active, n for inactive

molecule	label-value
CCOc1ccc(NC(C)=O)cc1	n
NC(N)=NC(N)=Nc1ccccc1	n
C=C(C)[C@H]1Cc2c(ccc3c2O[C@@H]2COc4cc(OC)c(OC)cc4[C@@H]2C3=O)O1	n

Query: What classification did CC(=O)OCC(=O)[C@@]1(O)CCC2C3CCC4=CC(=O)CC[C@]4(C)C3[C@@H](O)C[C@@]21C (some centres undefined) end up with in this test?
Result: n

Query: Now try COc1ccc(C(=O)O)c(O)c1OC .
Result: n

Query: Now try CO[C@@]1(NC(=O)Cc2cccs2)C(=O)N2C(C(=O)O)=C(COC(N)=O)CS[C@@H]21 .
Result: n

====

- measurement-description: chemical genetic growth profiling, strain panel (AID 1159580)
- condition-parameters: S. cerevisiae deletion strains, growth OD, locus YBR021W, strain FUR4, stronger effect = lower value
Screen size: about 5,500 compounds; about 2,000 (36%) were called active. Roughly 18% stayed inconclusive and do not appear here. This is one part of the list.
value-kind: normalized growth

molecule	normalized growth
COc1ccc(C(=O)O)c(O)c1OC	1.03 (inactive)
CN1CCN(CCC=C2c3ccccc3Sc3ccc(S(=O)(=O)N(C)C)cc32)CC1	0.978 (inactive)

Query: Name the recorded normalized growth for CC(N)C(O)c1ccc(O)c(O)c1 (configuration not stated) .
Result: 0.982 (inactive)

Query: Now try NC[C@H]1O[C@H](O[C@H]2C(O[C@@H]3O[C@H](CO)[C@@H](O)[C@H]3O)[C@@H](O)[C@H](N)C[C@@H]2N)[C@H](N)[C@@H](O)[C@@H]1O (some centres not stated) .
Result: 0.969 (inactive)

Query: Now try CNC(Cc1c[nH]c2ccccc12)C(=O)O (configuration not stated) .
Result: 1 (inactive)

Query: Now try CC1=C(O)C(=O)C=C2C1=CC=C1[C@@]2(C)CC[C@@]2(C)[C@@H]3C[C@](C)(C(=O)O)CC[C@]3(C)CC[C@]12C .
Result: 0.859 (inactive)

Query: Now try C[C@]12CCC(=O)C=C1CCC1C2[C@@H](O)C[C@@]2(C)C1CC[C@]2(O)C(=O)COC(=O)CCC(=O)O (some centres not stated) .
Result: 1.01 (inactive)

Query: Now try O=C(O)[C@H](O)[C@@](O)(Cc1ccc(O)cc1)C(=O)O .
Result: 1.02 (inactive)

====

- measurement-description: chemical genetic growth profiling, strain panel (AID 1159580);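 further: tested at 20 µM; growth read once vehicle control cultures reached saturation at 30 °C; 1 = growth at the plate median or of vehicle wells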
- condition-parameters: S. cerevisiae deletion strains, growth OD, locus YBR009C, strain hhf1
Hit rate of the full screen: of about 5,500 compounds, about 2,000 (36%) were called active. Another 18% or so got no clear call; they are omitted. No stated cut-off is given here; in the data, active means normalized growth mostly below about 0.91 (no sharp cut-off); inconclusive means no clear call, values can overlap the other calls; inactive means mostly above about 0.92. The list shows a part of the results.
Form entry, call: pick from class 1 for active, class 0 for inactive

Query: What classification did C[C@]12CCC3C(CC[C@H]4C[C@H](OS(=O)(=O)O)CC[C@]34C)C1CCC2=O (stereo not given in full) end up with in this test?
Result: class 0

====

- measurement-description: chemical genetic growth profiling, strain panel (AID 1159580);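 further: tested at 20 µM; growth read once vehicle control cultures reached saturation at 30 °C; 1 = growth at the plate median or of vehicle wells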
- condition-parameters: S. cerevisiae deletion strains, growth OD, locus YNL307C, strain MCK1 (second series), stronger effect = lower value
Among all 5,500 compounds or so, about 2,000 (36%) were called active. Another 18% or so got no clear call; they are omitted. This is one part of the list.
value-kind: normalized growth

>>> df
                             smiles_str            result
0     FC(F)(F)c1cc(-c2ccc(Cl)cc2)n[nH]1  0.853 (inactive)
1  O=C(Nc1cccnc1)c1cc2c(s1)-c1ccccc1CC2  0.757 (inactive)
2      COc1cc(N2C(=O)C=CC2=O)cc(OC)c1OC   0.67 (inactive)

Please find the next compound below.
Query: Name the recorded normalized growth for S=C(Nc1ccc(Cl)cc1)Nc1ccc(Cl)cc1 .
Result: 0.783 (inactive)

====

- measurement-description: chemical genetic growth profiling, strain panel (AID 1159580);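 further: tested at 20 µM; growth read once vehicle control cultures reached saturation at 30 °C; 1 = growth at the plate median or of vehicle wells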
- condition-parameters: S. cerevisiae deletion strains, growth OD, locus YAL026C, strain drs2, stronger effect = lower value
Hit rate of the full screen: of about 5,500 compounds, about 2,000 (36%) were called active. Inconclusive results (about 18%) are left out. The list shows a part of the results.
value-kind: normalized growth
Write the value as a bare number.

compound	normalized growth
CC[C@H]1OC(=O)[C@H](C)[C@@H](O[C@H]2C[C@@](C)(OC)[C@@H](O)[C@H](C)O2)[C@H](C)[C@@H](O[C@@H]2O[C@H](C)C[C@H](N(C)C)[C@H]2O)[C@](C)(O)C[C@@H](C)[C@@H]2N[C@@H](COCCOC)O[C@H]([C@H]2C)[C@]1(C)O	0.993
O=C(O)[C@H](O)[C@@](O)(Cc1ccc(O)cc1)C(=O)O	1
CCOc1ccc(NC(C)=O)cc1	1.01
CC1=C(O)C(=O)C=C2C1=CC=C1[C@@]2(C)CC[C@@]2(C)[C@@H]3C[C@](C)(C(=O)O)CC[C@]3(C)CC[C@]12C	0.51
CC(=O)Oc1cc2c(c(C)c1OC(C)=O)CC1OC13C2(C)CCC1(C)C2CC(C)(C(=O)O)CCC2(C)CCC13C (stereo not drawn)	1.04
CCOc1ccc(C(=O)c2ccc(O)c(O)c2O)cc1	0.844
O=c1oc2c(O)c(O)cc3c(=O)oc4c(O)c(O)cc1c4c23	0.545

Query: Name the recorded normalized growth for CCOc1ccc(C(=O)c2ccc(OC)c(O)c2O)cc1 .
Result: 0.966
